Where do these numbers come from? They come from paper PMC12011786.

Catalogue of compounds with associated AUC
- ASSAY PROCEDURE: Pharmacokinetics of methoxyflavones after single oral administration of KP ethanolic extract in roosters
- Format: in vivo, Thai native roosters (Pradu Hang Dum breed)
- EXPERIMENTAL CONDITIONS: male, Thai native Pradu Hang Dum, whole blood, po, 100 mg/kg, single oral KP extract 100 mg/kg, blood, n = 9, read-out: AUC

- COMPOUND: "COc1cc(OC)c2c(=O)c(OC)c(-c3ccc(OC)c(OC)c3)oc2c1 [PMF, 3,5,7,3′,4′-pentamethoxyflavone]"
  AUC: "2620 ng·h/mL"
- COMPOUND: "COc1ccc(-c2cc(=O)c3c(OC)cc(OC)cc3o2)cc1 [TMF, 5,7,4′-trimethoxyflavone]"
  AUC: "1200 ng·h/mL"
- COMPOUND: "COc1cc(OC)c2c(=O)cc(-c3ccccc3)oc2c1 [DMF, 5,7-dimethoxyflavone]"
  AUC: "1020 ng·h/mL"

---

- ASSAY PROCEDURE: Pharmacokinetics of methoxyflavones after single oral administration of KP ethanolic extract in roosters
- Assay type: in vivo, Thai native roosters (Pradu Hang Dum breed)
- EXPERIMENTAL CONDITIONS: male, Thai native Pradu Hang Dum, whole blood, po, 200 mg/kg, range over oral KP extract doses 100, 150, 200 mg/kg, read-out: area under the curve (AUC)
AUC values by entry

- STRUCTURE SMILES STRING: "COc1cc(OC)c2c(=O)cc(-c3ccccc3)oc2c1"
  AUC: "1020 to 1680 ng·h/mL"
- STRUCTURE SMILES STRING: "COc1ccc(-c2cc(=O)c3c(OC)cc(OC)cc3o2)cc1"
  AUC: "1200 to 1450 ng·h/mL"
- STRUCTURE SMILES STRING: "COc1cc(OC)c2c(=O)c(OC)c(-c3ccc(OC)c(OC)c3)oc2c1"
  AUC: "2620 to 3060 ng·h/mL"

---

- ASSAY PROCEDURE: Pharmacokinetics of methoxyflavones after single oral administration of KP ethanolic extract in roosters
- Type: in vivo, Thai native roosters (Pradu Hang Dum breed)
- EXPERIMENTAL CONDITIONS: single oral KP extract 150 mg/kg, blood, n = 9
PROPERTY: Vd (L/kg)

- STRUCTURE SMILES STRING: "COc1cc(OC)c2c(=O)cc(-c3ccccc3)oc2c1"
  RECORDED MEASUREMENT: 19.1
- STRUCTURE SMILES STRING: "COc1ccc(-c2cc(=O)c3c(OC)cc(OC)cc3o2)cc1"
  RECORDED MEASUREMENT: 20
- STRUCTURE SMILES STRING: "COc1cc(OC)c2c(=O)c(OC)c(-c3ccc(OC)c(OC)c3)oc2c1"
  RECORDED MEASUREMENT: 8.24

---

- ASSAY PROCEDURE: Pharmacokinetics of methoxyflavones after single oral administration of KP ethanolic extract in roosters
- Type: in vivo, Thai native roosters (Pradu Hang Dum breed)
- EXPERIMENTAL CONDITIONS: single oral KP extract 100 mg/kg, blood, n = 9
PROPERTY: Vd (L/kg)

- STRUCTURE SMILES STRING: "COc1cc(OC)c2c(=O)c(OC)c(-c3ccc(OC)c(OC)c3)oc2c1"
  UNIT SYMBOL: "L/kg"
  RECORDED MEASUREMENT: 7.78
- STRUCTURE SMILES STRING: "COc1cc(OC)c2c(=O)cc(-c3ccccc3)oc2c1"
  UNIT SYMBOL: "L/kg"
  RECORDED MEASUREMENT: 18.9
- STRUCTURE SMILES STRING: "COc1ccc(-c2cc(=O)c3c(OC)cc(OC)cc3o2)cc1"
  UNIT SYMBOL: "L/kg"
  RECORDED MEASUREMENT: 17.8
